# systemUnderTest: human NMDA receptor GluN1-GluN2C (Homo sapiens, UniProt Q05586+Q14957)
# Construct: expressed in transfected cells; host or cells: CHO
# Sequence (Q14957 20-1233, other chains not shown): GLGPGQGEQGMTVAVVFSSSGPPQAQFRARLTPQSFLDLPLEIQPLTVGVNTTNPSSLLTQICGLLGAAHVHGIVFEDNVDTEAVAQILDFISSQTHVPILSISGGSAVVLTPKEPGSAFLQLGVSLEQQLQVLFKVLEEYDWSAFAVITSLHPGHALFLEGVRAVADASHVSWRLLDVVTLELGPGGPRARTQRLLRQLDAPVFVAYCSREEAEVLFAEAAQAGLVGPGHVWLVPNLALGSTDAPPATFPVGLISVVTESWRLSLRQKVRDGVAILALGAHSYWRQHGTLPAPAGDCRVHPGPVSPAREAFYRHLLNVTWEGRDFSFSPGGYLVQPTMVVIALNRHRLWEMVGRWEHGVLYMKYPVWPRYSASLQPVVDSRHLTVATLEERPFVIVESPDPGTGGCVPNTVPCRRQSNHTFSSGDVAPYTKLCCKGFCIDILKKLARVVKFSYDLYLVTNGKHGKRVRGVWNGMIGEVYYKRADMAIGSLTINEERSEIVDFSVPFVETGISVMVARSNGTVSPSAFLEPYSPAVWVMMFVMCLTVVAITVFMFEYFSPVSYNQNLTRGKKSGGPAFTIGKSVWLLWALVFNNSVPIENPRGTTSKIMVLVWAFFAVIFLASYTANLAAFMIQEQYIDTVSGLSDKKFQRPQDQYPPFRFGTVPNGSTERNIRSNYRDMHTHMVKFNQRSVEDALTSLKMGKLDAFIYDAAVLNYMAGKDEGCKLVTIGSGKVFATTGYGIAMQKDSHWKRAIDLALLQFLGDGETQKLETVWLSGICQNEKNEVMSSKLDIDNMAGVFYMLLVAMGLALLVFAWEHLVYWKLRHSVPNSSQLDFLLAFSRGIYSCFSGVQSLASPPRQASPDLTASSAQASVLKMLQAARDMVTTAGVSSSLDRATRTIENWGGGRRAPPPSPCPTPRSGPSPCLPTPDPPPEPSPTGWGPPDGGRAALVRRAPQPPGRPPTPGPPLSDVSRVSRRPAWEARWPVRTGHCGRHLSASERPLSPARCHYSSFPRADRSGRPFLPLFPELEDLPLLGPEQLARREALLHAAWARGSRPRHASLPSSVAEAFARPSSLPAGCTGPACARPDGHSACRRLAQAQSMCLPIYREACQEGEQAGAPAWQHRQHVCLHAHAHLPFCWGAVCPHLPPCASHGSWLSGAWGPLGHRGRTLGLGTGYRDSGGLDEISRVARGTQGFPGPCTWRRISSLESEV
# protocolNotes: FLIPR calcium assay, test item effect on L-glutamate CRC, GluN1-GluN2C-CHO
# Assay type: cell-based
# measurementParameters: with test item 50 μM
Counter-ions that a name gives are not always drawn.
We begin with a simple list: items and their reported L-glutamate CRC LogEC50.

[
  {
    "compound": "COc1ccc2c(c1)[C@]13CCCC[C@@H]1[C@H](C2)N(C)CC3 [Dextromethorphan, hydrobromide monohydrate]",
    "L-glutamate CRC LogEC50": "−6.8"
  },
  {
    "compound": "CCC(=O)C(C[C@H](C)N(C)C)(c1ccccc1)c1ccccc1",
    "L-glutamate CRC LogEC50": "−6.6"
  },
  {
    "compound": "CNC1(c2ccccc2Cl)CCCCC1=O (racemic) [(±)-Ketamine, (±)-ketamine hydrochloride]",
    "L-glutamate CRC LogEC50": "−6.4"
  },
  {
    "compound": "CC12CC3CC(C)(C1)CC(N)(C3)C2 [Memantine, memantine hydrochloride]",
    "L-glutamate CRC LogEC50": "−6.3"
  }
]

* * *

# systemUnderTest: human NMDA receptor GluN1-GluN2D (Homo sapiens, UniProt O15399+Q05586)
# Construct: expressed in transfected cells; host or cells: CHO
# Sequence (O15399 28-1336, other chains not shown): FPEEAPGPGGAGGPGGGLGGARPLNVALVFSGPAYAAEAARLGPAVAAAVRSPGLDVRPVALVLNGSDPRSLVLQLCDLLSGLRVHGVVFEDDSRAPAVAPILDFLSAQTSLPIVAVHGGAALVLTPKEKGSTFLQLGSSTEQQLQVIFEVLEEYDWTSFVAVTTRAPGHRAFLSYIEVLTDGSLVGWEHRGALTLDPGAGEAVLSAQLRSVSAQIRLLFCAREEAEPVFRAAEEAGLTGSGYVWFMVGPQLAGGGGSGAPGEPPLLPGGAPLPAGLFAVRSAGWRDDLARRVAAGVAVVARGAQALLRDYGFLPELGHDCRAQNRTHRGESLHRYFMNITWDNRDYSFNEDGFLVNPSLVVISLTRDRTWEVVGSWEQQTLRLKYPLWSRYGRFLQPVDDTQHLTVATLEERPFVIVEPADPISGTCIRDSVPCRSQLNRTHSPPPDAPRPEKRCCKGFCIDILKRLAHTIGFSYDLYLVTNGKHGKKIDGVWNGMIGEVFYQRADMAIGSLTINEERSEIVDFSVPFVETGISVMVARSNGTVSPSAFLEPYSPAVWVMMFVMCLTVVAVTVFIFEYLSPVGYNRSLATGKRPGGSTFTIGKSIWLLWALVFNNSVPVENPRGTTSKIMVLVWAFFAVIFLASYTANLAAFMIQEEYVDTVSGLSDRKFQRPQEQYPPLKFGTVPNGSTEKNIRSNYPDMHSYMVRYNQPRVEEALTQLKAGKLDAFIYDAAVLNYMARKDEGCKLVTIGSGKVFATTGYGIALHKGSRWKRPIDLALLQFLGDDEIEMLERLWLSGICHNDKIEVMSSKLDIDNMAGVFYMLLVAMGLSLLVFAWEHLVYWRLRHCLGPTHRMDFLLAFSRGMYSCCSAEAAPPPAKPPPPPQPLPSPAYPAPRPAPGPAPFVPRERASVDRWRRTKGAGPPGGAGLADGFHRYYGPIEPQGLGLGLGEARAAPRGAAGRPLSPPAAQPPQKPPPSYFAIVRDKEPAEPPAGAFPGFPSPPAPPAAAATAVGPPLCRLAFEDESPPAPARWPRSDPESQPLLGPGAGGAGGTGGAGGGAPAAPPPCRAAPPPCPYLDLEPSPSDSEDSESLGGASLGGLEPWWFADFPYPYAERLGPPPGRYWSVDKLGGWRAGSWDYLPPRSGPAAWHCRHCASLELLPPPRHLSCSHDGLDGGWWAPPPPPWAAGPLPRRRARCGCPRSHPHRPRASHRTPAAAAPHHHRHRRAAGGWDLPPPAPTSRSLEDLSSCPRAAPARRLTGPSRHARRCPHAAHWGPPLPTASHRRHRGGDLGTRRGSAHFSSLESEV
# protocolNotes: FLIPR calcium assay, test item effect on L-glutamate CRC, GluN1-GluN2D-CHO
# Assay type: cell-based
# measurementParameters: with test item 49 nM
Counter-ions that a name gives are not always drawn.

[
  {
    "molecule": "CNC1(c2ccccc2Cl)CCCCC1=O (racemic) [(±)-Ketamine, (±)-ketamine hydrochloride]",
    "L-glutamate CRC LogEC50": "−7.4"
  },
  {
    "molecule": "CCC(=O)C(C[C@H](C)N(C)C)(c1ccccc1)c1ccccc1",
    "L-glutamate CRC LogEC50": "−7.5"
  },
  {
    "molecule": "CC12CC3CC(C)(C1)CC(N)(C3)C2 [Memantine, memantine hydrochloride]",
    "L-glutamate CRC LogEC50": "−7.3"
  },
  {
    "molecule": "COc1ccc2c(c1)[C@]13CCCC[C@@H]1[C@H](C2)N(C)CC3 [Dextromethorphan, hydrobromide monohydrate]",
    "L-glutamate CRC LogEC50": "−7.5"
  }
]

* * *

# systemUnderTest: human NMDA receptor GluN1-GluN2D (Homo sapiens, UniProt O15399+Q05586)
# Construct: expressed in transfected cells; host or cells: CHO
# protocolNotes: FLIPR calcium assay, test item effect on L-glutamate CRC, GluN1-GluN2D-CHO
# Type: cell-based
# measurementParameters: with test item 781 nM
Counter-ions that a name gives are not always drawn.
quantityName: L-glutamate CRC HillSlope

[
  {
    "compound": "CNC1(c2ccccc2Cl)CCCCC1=O (racemic) [(±)-Ketamine, (±)-ketamine hydrochloride]",
    "quantityName": "L-glutamate CRC HillSlope",
    "reportedValue": 1.4
  },
  {
    "compound": "CC12CC3CC(C)(C1)CC(N)(C3)C2 [Memantine, memantine hydrochloride]",
    "quantityName": "L-glutamate CRC HillSlope",
    "reportedValue": 1.4
  },
  {
    "compound": "CCC(=O)C(C[C@H](C)N(C)C)(c1ccccc1)c1ccccc1",
    "quantityName": "L-glutamate CRC HillSlope",
    "reportedValue": 1.7
  },
  {
    "compound": "COc1ccc2c(c1)[C@]13CCCC[C@@H]1[C@H](C2)N(C)CC3 [Dextromethorphan, hydrobromide monohydrate]",
    "quantityName": "L-glutamate CRC HillSlope",
    "reportedValue": 1.7
  }
]

* * *

# systemUnderTest: human NMDA receptor GluN1-GluN2D (Homo sapiens, UniProt O15399+Q05586)
# Construct: expressed in transfected cells; host or cells: CHO
# protocolNotes: FLIPR calcium assay, test item effect on L-glutamate CRC, GluN1-GluN2D-CHO
# Type: cell-based
# measurementParameters: with test item 12.5 μM
Where a name gives a salt, the structure may show the parent alone.

[
  {
    "compound": "COc1ccc2c(c1)[C@]13CCCC[C@@H]1[C@H](C2)N(C)CC3 [Dextromethorphan, hydrobromide monohydrate]",
    "systemUnderTest": "human NMDA receptor GluN1-GluN2D (Homo sapiens, UniProt O15399+Q05586)",
    "L-glutamate CRC HillSlope": 1.7
  },
  {
    "compound": "CCC(=O)C(C[C@H](C)N(C)C)(c1ccccc1)c1ccccc1",
    "systemUnderTest": "human NMDA receptor GluN1-GluN2D (Homo sapiens, UniProt O15399+Q05586)",
    "L-glutamate CRC HillSlope": 1.1
  },
  {
    "compound": "CNC1(c2ccccc2Cl)CCCCC1=O (racemic) [(±)-Ketamine, (±)-ketamine hydrochloride]",
    "systemUnderTest": "human NMDA receptor GluN1-GluN2D (Homo sapiens, UniProt O15399+Q05586)",
    "L-glutamate CRC HillSlope": 1.6
  },
  {
    "compound": "CC12CC3CC(C)(C1)CC(N)(C3)C2 [Memantine, memantine hydrochloride]",
    "systemUnderTest": "human NMDA receptor GluN1-GluN2D (Homo sapiens, UniProt O15399+Q05586)",
    "L-glutamate CRC HillSlope": 1.5
  }
]

* * *

# systemUnderTest: human NMDA receptor GluN1-GluN2D (Homo sapiens, UniProt O15399+Q05586)
# Construct: expressed in transfected cells; host or cells: CHO
# protocolNotes: FLIPR calcium assay, test item effect on L-glutamate CRC, GluN1-GluN2D-CHO
# Format: cell-based
# measurementParameters: with test item 195 nM
Counter-ions that a name gives are not always drawn.
We begin with a simple list: items and their reported L-glutamate CRC LogEC50.
quantityName: L-glutamate CRC LogEC50

[
  {
    "compound": "CCC(=O)C(C[C@H](C)N(C)C)(c1ccccc1)c1ccccc1",
    "reportedValue": "−7.5"
  },
  {
    "compound": "COc1ccc2c(c1)[C@]13CCCC[C@@H]1[C@H](C2)N(C)CC3 [Dextromethorphan, hydrobromide monohydrate]",
    "reportedValue": "−7.5"
  },
  {
    "compound": "CC12CC3CC(C)(C1)CC(N)(C3)C2 [Memantine, memantine hydrochloride]",
    "reportedValue": "−7.3"
  },
  {
    "compound": "CNC1(c2ccccc2Cl)CCCCC1=O (racemic) [(±)-Ketamine, (±)-ketamine hydrochloride]",
    "reportedValue": "−7.3"
  }
]

* * *

We begin with a simple list: items and their reported L-glutamate CRC LogEC50.
# systemUnderTest: human NMDA receptor GluN1-GluN2A (Homo sapiens, UniProt Q05586+Q12879)
# Construct: expressed in transfected cells; host or cells: CHO
# Sequence (Q12879 23-1464, other chains not shown): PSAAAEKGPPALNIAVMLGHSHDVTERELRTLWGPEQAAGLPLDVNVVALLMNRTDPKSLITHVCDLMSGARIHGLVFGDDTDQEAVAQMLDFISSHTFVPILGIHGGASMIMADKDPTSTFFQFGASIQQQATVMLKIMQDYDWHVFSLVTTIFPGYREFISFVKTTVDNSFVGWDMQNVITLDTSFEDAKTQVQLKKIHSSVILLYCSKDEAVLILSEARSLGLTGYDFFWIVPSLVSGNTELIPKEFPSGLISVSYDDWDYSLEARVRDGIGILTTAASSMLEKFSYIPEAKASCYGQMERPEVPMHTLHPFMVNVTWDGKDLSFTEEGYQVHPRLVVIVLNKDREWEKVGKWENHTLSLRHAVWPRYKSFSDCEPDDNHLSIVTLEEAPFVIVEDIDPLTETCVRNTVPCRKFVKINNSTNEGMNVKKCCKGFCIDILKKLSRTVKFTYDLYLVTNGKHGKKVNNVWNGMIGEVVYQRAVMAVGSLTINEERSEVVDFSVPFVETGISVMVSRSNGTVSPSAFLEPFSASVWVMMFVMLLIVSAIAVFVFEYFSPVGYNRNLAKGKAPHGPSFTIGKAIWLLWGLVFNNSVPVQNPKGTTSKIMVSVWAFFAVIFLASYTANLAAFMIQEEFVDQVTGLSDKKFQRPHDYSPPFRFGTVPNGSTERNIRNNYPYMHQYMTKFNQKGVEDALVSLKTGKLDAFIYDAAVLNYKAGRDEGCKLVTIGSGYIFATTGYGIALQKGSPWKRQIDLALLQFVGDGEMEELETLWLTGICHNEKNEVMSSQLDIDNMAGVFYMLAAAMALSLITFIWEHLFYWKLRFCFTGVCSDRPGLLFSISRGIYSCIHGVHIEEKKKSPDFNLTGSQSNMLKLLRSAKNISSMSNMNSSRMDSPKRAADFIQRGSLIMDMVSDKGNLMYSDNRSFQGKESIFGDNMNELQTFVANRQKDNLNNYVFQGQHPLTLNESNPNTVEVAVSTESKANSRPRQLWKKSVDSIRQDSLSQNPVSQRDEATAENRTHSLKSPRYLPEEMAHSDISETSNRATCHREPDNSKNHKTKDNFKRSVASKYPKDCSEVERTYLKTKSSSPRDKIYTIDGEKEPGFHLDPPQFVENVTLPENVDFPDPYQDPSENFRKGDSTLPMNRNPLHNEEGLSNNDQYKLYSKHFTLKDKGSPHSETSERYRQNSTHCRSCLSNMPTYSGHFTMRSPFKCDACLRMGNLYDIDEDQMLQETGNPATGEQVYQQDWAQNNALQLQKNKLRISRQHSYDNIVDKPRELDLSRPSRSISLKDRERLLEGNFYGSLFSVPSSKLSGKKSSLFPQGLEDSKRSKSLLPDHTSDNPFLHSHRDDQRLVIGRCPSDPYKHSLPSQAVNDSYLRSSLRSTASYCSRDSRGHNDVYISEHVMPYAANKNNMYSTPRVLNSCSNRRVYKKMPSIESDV
# protocolNotes: FLIPR calcium assay, test item effect on L-glutamate CRC, GluN1-GluN2A-CHO
# Format: cell-based
# measurementParameters: with test item 3.1 μM
# Experimental: FLIPR determination of intracellular calcium level was used as a read-out for NMDAR activation. 400× compound plate was stored at −20° C. until FLIPR experimental day. 4× compound plate was generated from 400× compound plate by addition of up to 30 μl/well of compound buffer on FLIPR experimental day. A FLIPR system was used to monitor intracellular calcium level in NMDAR cell lines, pre-loaded for 1 hour with Fluo-4, and then washed with assay buffer. […]
Structures can show the parent of a compound that is named as a salt.

[
  {
    "compound": "CCC(=O)C(C[C@H](C)N(C)C)(c1ccccc1)c1ccccc1",
    "L-glutamate CRC LogEC50": "−6.6"
  },
  {
    "compound": "CNC1(c2ccccc2Cl)CCCCC1=O (racemic) [(±)-Ketamine, (±)-ketamine hydrochloride]",
    "L-glutamate CRC LogEC50": "−6.4"
  },
  {
    "compound": "COc1ccc2c(c1)[C@]13CCCC[C@@H]1[C@H](C2)N(C)CC3 [Dextromethorphan, hydrobromide monohydrate]",
    "L-glutamate CRC LogEC50": "−6.5"
  },
  {
    "compound": "CC12CC3CC(C)(C1)CC(N)(C3)C2 [Memantine, memantine hydrochloride]",
    "L-glutamate CRC LogEC50": "−6.4"
  }
]

* * *

# systemUnderTest: human NMDA receptor GluN1-GluN2C (Homo sapiens, UniProt Q05586+Q14957)
# Construct: expressed in transfected cells; host or cells: CHO
# protocolNotes: FLIPR calcium assay, test item effect on L-glutamate CRC, GluN1-GluN2C-CHO
# Type: cell-based
# measurementParameters: with test item 50 μM
Structures can show the parent of a compound that is named as a salt.
We begin with a simple list: items and their reported L-glutamate CRC HillSlope.

[
  {
    "compound": "COc1ccc2c(c1)[C@]13CCCC[C@@H]1[C@H](C2)N(C)CC3 [Dextromethorphan, hydrobromide monohydrate]",
    "systemUnderTest": "human NMDA receptor GluN1-GluN2C (Homo sapiens, UniProt Q05586+Q14957)",
    "L-glutamate CRC HillSlope": 3.0
  },
  {
    "compound": "CC12CC3CC(C)(C1)CC(N)(C3)C2 [Memantine, memantine hydrochloride]",
    "systemUnderTest": "human NMDA receptor GluN1-GluN2C (Homo sapiens, UniProt Q05586+Q14957)",
    "L-glutamate CRC HillSlope": 6.1
  },
  {
    "compound": "CCC(=O)C(C[C@H](C)N(C)C)(c1ccccc1)c1ccccc1",
    "systemUnderTest": "human NMDA receptor GluN1-GluN2C (Homo sapiens, UniProt Q05586+Q14957)",
    "L-glutamate CRC HillSlope": 1.7
  },
  {
    "compound": "CNC1(c2ccccc2Cl)CCCCC1=O (racemic) [(±)-Ketamine, (±)-ketamine hydrochloride]",
    "systemUnderTest": "human NMDA receptor GluN1-GluN2C (Homo sapiens, UniProt Q05586+Q14957)",
    "L-glutamate CRC HillSlope": 2.5
  }
]

Data credit: patent US20230017786A1
